Listing: EC50 (nM) GLP-1R, cAMP formation of selected binders
- Tested system: human glucagon-like peptide 1 receptor (GLP-1R) (human, UniProt P43220 24-463)
- Sequence (P43220 24-463): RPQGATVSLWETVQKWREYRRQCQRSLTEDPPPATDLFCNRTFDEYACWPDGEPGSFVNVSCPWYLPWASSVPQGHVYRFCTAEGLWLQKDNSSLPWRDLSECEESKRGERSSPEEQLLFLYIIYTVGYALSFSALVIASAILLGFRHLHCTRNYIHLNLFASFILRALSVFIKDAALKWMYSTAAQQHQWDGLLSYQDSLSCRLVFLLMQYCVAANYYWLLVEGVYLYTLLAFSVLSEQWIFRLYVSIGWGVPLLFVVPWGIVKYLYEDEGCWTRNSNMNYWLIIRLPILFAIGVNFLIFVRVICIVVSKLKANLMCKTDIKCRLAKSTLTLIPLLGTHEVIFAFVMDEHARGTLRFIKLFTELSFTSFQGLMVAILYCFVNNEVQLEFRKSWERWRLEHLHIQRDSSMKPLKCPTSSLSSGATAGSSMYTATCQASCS
- Protocol details: cell-based or functional assay
Square brackets hold non-standard residues; d marks the D form. Side chains are listed from the residue outwards. * marks the point of attachment. isoGlu = used interchangeably with γ-Glu; Palmitoyl = CCCCCCCCCCCCCCCC(=O)*; Aib = CC(C)(N)C(=O)O
Give just the numeric value; nM need not be written.

Look up and report measured EC50 (nM) GLP-1R, cAMP formation for this entry: HXQGTFTSDYSKYLDSKAAHDFVEWLLSA (Aib at position 2; K(Hexadecanoyl-[8-Aminooctanoyl]) at position 17; C-terminal amide (NH2)) [Compound 29]
0.199

Fill in reported EC50 (nM) GLP-1R, cAMP formation for this entry: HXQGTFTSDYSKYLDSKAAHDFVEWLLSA (Aib at position 2; K(Hexadecanoyl-[4-Aminobutanoyl]) at position 17; C-terminal amide (NH2)) [Compound 27]
0.152

Answer with the recorded EC50 (nM) GLP-1R, cAMP formation for the binder listed here: HXQGTFTSDYSKYLDSXAAHDFVEWLLSA (Aib at position 2; Orn(Hexadecanoyl-isoGlu) at position 17; C-terminal amide (NH2)) [Compound 32]
0.195

Identify measured EC50 (nM) GLP-1R, cAMP formation associated with H-H[Aib]QGTFTSDYSKYLDSK([isoGlu-Palmitoyl])AAKDFVEWLLSA-NH2 [Compound 39]
0.16

In one line, give reported EC50 (nM) GLP-1R, cAMP formation of the entry H-H[Aib]QGTFTSDYSKYLDSK([isoGlu-Palmitoyl])AAHDFVEWLLEA-NH2 [Compound 43] .
0.082

Please give measured EC50 (nM) GLP-1R, cAMP formation of the following entry: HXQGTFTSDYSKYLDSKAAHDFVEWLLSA (Aib at position 2; K(Dodecanoyl-isoGlu) at position 17; C-terminal amide (NH2)) [Compound 26]
0.097

Supply EC50 (nM) GLP-1R, cAMP formation value. Item: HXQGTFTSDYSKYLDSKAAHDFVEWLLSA (Aib at position 2; K(Hexadecanoyl) at position 17; C-terminal amide (NH2)) [Compound 23]
0.14

Identify measured EC50 (nM) GLP-1R, cAMP formation associated with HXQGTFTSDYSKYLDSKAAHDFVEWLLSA (Aib at position 2; K(Hexadecanoyl-isoGlu) at position 17; free C-terminal acid (OH)) [Compound 21]
0.077
